Measured SPOT intensity by item
- measurement-target: T1, Cyk3, Q07533
- T1 sequence (Q07533 1-83, looked up): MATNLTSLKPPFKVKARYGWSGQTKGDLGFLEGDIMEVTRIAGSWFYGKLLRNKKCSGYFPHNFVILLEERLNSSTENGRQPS
- test-method-notes: SPOT array
- protocol-conditions: median of control spots 1451
quantity-kind: SPOT intensity

{"columns": ["binder", "quantity-kind", "obs-value"],
 "data": [
  ["AHFQPQRTAPKPPIS", "SPOT intensity", 0],
  ["AERNYAPRLPRRETS", "SPOT intensity", 0],
  ["NFLRLLIGLPSQNEL", "SPOT intensity", 9],
  ["APPPPPRRATPEKKP", "SPOT intensity", 1],
  ["KDKKTKPTPPPKPSH", "SPOT intensity", 2],
  ["LASNSPPVYPKRIRH", "SPOT intensity", 0],
  ["NGRRRPKFRVQLSGN", "SPOT intensity", 8]
]}
